molecular target: UniProtKB Q9HD36; assay: Bcl-B Bim peptide interaction hit potency – biochemical, dose response, multiplexed HTS hits, confirmation (AID 2077); conditions: bead-based flow cytometry, Bim peptide-Bcl-B binding
Sequence (Q9HD36 whole entry, looked up): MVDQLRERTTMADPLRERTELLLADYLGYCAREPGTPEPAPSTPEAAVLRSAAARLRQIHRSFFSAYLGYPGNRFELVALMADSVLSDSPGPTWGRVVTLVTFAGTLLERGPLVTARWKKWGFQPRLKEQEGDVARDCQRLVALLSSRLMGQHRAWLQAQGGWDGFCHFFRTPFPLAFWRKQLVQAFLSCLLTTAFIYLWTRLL
endpoint-label: EC50

compound: COc1ccc(N2C(=O)C(Cl)=C(NC3C(=O)N(c4ccccc4)N(C)C3C)C2=O)cc1 (stereo unspecified)
endpoint-label: EC50
assay-result: 620 nM
